TARGET DESC: T1, 4H626-bH
T1 chain: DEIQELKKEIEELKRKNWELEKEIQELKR
TEST: two-hybrid library CCNG1;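 also: natural log of median RNA to DNA barcode read ratio; higher means stronger binding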
TEST READOUT: interaction score
One number for each entry.

Respectfully, I request interaction score for each entry included below.
1. DKNQELKKEIEELERKIWELKKENQELKR [4H3628-bH]
2. DENQELKKKIEELERKIWELEKKNQELER [4H1831-bH]
3. DENQELEKEIEELERKNWELKKEIQELER [4H1081-bH]
4. DEIQELKKEIEELKRKNWELEKEIQELKR [4H626-bH]

[-0.0728, 1.02, -0.576, 0.932]
